System: HCT-116 colon
Experiment: NCI-60 one-dose screen, 48 h
Conditions: 10 µM unless noted
Method: Growth inhibition of the HCT-116 human tumor cell line is measured as a screen for anti-cancer activity. Cells are grown in 96 well plates and exposed to the test compound for 48 hours. Compounds are tested at a single concentration, which is 10^-5 M for most compounds. The reported endpoint is percent growth (GI% or GIPRCNT), where numbers from 0 - 100% represent growth inhibition, and numbers from -100% - 0 represent cell death. For example, a value of 40 represents 60% growth inhibition. […]
About 83,000 compounds went through this panel and 20% of them were active in at least one assay; those are over-represented in the sample as a whole. Calls of active or inactive are those of the source. The calls were made as follows: active = growth percent below 10; inactive = the rest.
Outcome codes: active, inactive

{"columns": ["Molecule", "Category Label"],
 "data": [
  ["Cn1[nH]cc(/C=N/C(N)=O)c1=O", "inactive"],
  ["O=C(C(=O)N1CCOCC1)c1ccc(OC2OC(CO)C(O)C(O)C2O)cc1 (configuration not stated)", "inactive"],
  ["COc1ccc2c(c1)nc(N)c1c3ccccc3cn21", "inactive"],
  ["COc1cc(C2NC(c3ccc(Cl)cc3)C(C)C(=NC(=O)c3cnccn3)C2C)cc(OC)c1OC (configuration not stated)", "inactive"],
  ["C/C(=C\\CCc1ccsc1)CC/C=C(\\C)CCCN1CCN(CCO)CC1", "inactive"],
  ["C[N+]1(CCc2ccccc2)CCC(CCC2CC[N+](C)(CCc3ccccc3)CC2)CC1 (configuration not stated)", "inactive"],
  ["C=CC1=C(C(=O)O)N2C(=O)[C@@H](NC(=O)/C(=N\\O)c3csc(N)n3)[C@H]2SC1 (stereo in doubt)", "inactive"],
  ["O=C(Nc1nc(-c2ccccc2)cs1)c1cc(O)c(O)c(O)c1", "inactive"],
  ["NC(=O)N/N=C/c1ccc(Br)o1", "inactive"],
  ["COc1ccc(-c2csc(NC(=O)c3cc(O)c(O)c(O)c3)n2)cc1", "inactive"],
  ["COC(=O)c1ccc2c(c1)nc(-c1ccc(O)c(OC)c1)n2-c1cc(C(C)(C)C)[nH]n1", "inactive"],
  ["CSc1nc2c(c(=O)[nH]1)C(c1ccc(Cl)cc1)C1=C(N2)/C(=C/c2ccc(Cl)cc2)CNC1 (configuration not stated)", "active"],
  ["c1cnc2ccc3ncccc3c2c1", "inactive"],
  ["CCN(CC)c1ccc(CN(CC(=O)c2ccc(Cl)c(Cl)c2)Cc2ccccc2)cc1", "inactive"],
  ["COc1cc2c(cc1OCCCOc1ccc(-c3cc4ccccc4c4ccccc34)cc1)N=C[C@@H]1CCCN1C2=O", "active"],
  ["CC[C@H](C)C(=O)O[C@H]1C[C@@H](C)C=C2C=C[C@H](C)[C@H](CC[C@@H]3C[C@@H](O)CC(=O)O3)[C@H]21", "inactive"],
  ["COc1c(C)c2c(c(O)c1C/C=C(\\C)CCC(=O)OCCN1CCOCC1)C(=O)OC2", "inactive"],
  ["CC(=O)NC1(C(=O)O)CCCC1", "inactive"],
  ["N#Cc1cccc(/C=C(/C(=O)c2ccccc2)c2ccccc2)c1", "inactive"],
  ["CN(C)CCCN1c2nc3ccccc3cc2Sc2cc3ccccc3nc21", "active"],
  ["Cc1cc(C(=O)O)c(C)cc1C(=O)O", "inactive"],
  ["O=C1N(C2CCCCC2)C(=O)N1C1CCCCC1", "inactive"]
]}
